measurement notes: Hydroxyl radical scavenging assay (deoxyribose degradation method)
condition summary: mean ± SD (n = 3)
measurement kind: IC50, hydroxyl radical scavenging (µg/mL)
Your answer should be a plain number; it is taken to be in µg/mL.

Let me know recorded IC50, hydroxyl radical scavenging for COc1cc(CCCOC(=O)CCc2ccc(O)cc2)ccc1O [Compound 4, dihydroconiferyl dihydro-p-coumarate] , thanks.
15.07

----------
measurement notes: Total antioxidant capacity (reduction of Mo (VI) to Mo (V))
condition summary: 80 μg/ml, 695 nm, mean ± SD (n = 3)
Listing: Total antioxidant activity, absorbance of selected compounds

compound | measurement kind | result
COc1cc(CCCOC(=O)CCc2ccc(O)cc2)ccc1O [Compound 4, dihydroconiferyl dihydro-p-coumarate] | Total antioxidant activity, absorbance | 0.735 ± 0.022
O.Oc1cc(O)c2c(c1)O[C@H](c1ccc(O)c(O)c1)[C@@H](O)C2 [Catechin, reference compound] | Total antioxidant activity, absorbance | 1.739 ± 0.049
COc1cc(C=O)cc(OC)c1O | Total antioxidant activity, absorbance | 0.336 ± 0.009
COc1cc(C=O)ccc1O | Total antioxidant activity, absorbance | 0.716 ± 0.020

Let me know recorded Total antioxidant activity, absorbance for COc1cc(O)cc(CCc2ccc(O)c(OC)c2)c1 , thanks.
0.848 ± 0.029

----------
Listing: Z-factor of acetylcholinesterase inhibitory activity of selected molecules
experimental target: AChE (Mus musculus, UniProt P21836)
Construct: The AChE enzyme was prepared from mouse brain as described earlier; from tissue; host or cells: brain of Swiss albino mice
Sequence (P21836 32-614): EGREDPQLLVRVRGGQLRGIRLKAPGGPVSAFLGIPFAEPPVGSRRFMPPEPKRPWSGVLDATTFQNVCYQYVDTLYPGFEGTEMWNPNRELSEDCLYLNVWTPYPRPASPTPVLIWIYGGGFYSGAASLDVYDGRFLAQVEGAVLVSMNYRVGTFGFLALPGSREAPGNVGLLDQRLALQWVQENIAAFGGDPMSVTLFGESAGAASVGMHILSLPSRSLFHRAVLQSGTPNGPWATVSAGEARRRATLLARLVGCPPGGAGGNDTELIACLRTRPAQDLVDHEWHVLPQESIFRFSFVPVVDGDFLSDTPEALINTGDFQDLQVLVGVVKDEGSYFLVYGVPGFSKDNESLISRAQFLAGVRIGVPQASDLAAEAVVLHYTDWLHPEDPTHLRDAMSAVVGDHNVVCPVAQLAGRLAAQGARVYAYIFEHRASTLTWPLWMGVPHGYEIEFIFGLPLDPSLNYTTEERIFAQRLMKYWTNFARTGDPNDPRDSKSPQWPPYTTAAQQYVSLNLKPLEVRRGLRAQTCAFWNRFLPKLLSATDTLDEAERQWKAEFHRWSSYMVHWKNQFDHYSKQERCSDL
measurement notes: biochemical
condition summary: assay performance of the compound versus control
// no unit string in output, number only

Please review the entries below; each comes with its answer.
molecule | experimental target | number
COc1cc(CCCOC(=O)CCc2ccc(O)cc2)ccc1O [Compound 4, dihydroconiferyl dihydro-p-coumarate] | AChE (Mus musculus, UniProt P21836) | 0.87
COc1cc(O)cc(CCc2ccc(O)c(OC)c2)c1 [Compound 5, gigantol] | AChE (Mus musculus, UniProt P21836) | 0.80
COc1cc(C=O)ccc1O [Compound 3, vanillin] | AChE (Mus musculus, UniProt P21836) | 0.91

Alright, here's another molecule for you.
Let me know recorded Z-factor of acetylcholinesterase inhibitory activity for COc1cc(C=O)cc(OC)c1O [Compound 2, syringaldehyde] , thanks.
0.80

----------
measurement notes: Hydroxyl radical scavenging assay (deoxyribose degradation method)
condition summary: mean ± SD (n = 3)
Listing: IC50, hydroxyl radical scavenging of selected molecules
Your answer should be a plain number; it is taken to be in µg/mL.

Please review the entries below; each comes with its answer.
molecule | unit abbreviation | IC50, hydroxyl radical scavenging
O.Oc1cc(O)c2c(c1)O[C@H](c1ccc(O)c(O)c1)[C@@H](O)C2 [Catechin, reference compound] | µg/mL | 9.32
COc1cc(C=O)ccc1O | µg/mL | 21.72
COc1cc(O)cc(CCc2ccc(O)c(OC)c2)c1 | µg/mL | 6.61

Alright, here's another molecule for you.
Let me know recorded IC50, hydroxyl radical scavenging for COc1cc(C=O)cc(OC)c1O , thanks.
91.05
